Experiment: in vitro
Conditions: human, microsomes, pH 7.4
measured.property: half-life at 0.5 µM (min)
Answers are plain numbers, in min.

The reported value for "CCN(CC)Cc1cc(Nc2ccnc3cc(Cl)ccc23)ccc1O" in terms of half-life at 0.5 µM is 1.3

FYI, the data here is from paper PMC9693510.
